Where do these numbers come from? They come from the Immune Epitope Database (IEDB).

Target: HLA-A*68:01
Test: IEDB peptide-MHC binding, purified MHC/competitive/radioactivity; filed as Kd, often an IC50 or EC50 that approximates it; bounds were set here for any values at or beyond the usual limits of such assays
Details: source organism: Mammarenavirus choriomeningitidis
pKd: −log10 of the molar value.
measured-quantity: pKd

input: Quote HLA-A*68:01 pKd for entry SAYLISIFMH .
output: ≤ 4.15

---

Target: HLA-C*05:01
Assay: IEDB peptide-MHC binding, purified MHC/direct/fluorescence; filed as Kd, often an IC50 or EC50 that approximates it; bounds were set here for any values at or beyond the usual limits of such assays
Conditions: source organism: Mycobacterium tuberculosis C
pKd: −log10 of the molar value.
measured-quantity: pKd

input: Answer with the recorded pKd of YPRNGWPAL only.
output: ≤ 4.70
